Recorded pEC50, one value per entry.
# Test system: Bloodstream form of Trypanosoma brucei, strain Lister 427
# measurement_protocol: Trypanosoma brucei growth inhibition assay (CellTiter-Glo, 24 h)
# Type: cell-based
# test_context: Trypanosoma brucei; T. Brucei Growth Inibition Assay, class symbols; read-out: T. Brucei GI EC50
pEC50: −log10 of the molar value.

[
  {
    "compound": "COc1ccc2nc(C(F)(F)F)n(CC(=O)N3CCN(Cc4nccs4)C[C@H]3c3nnc(-c4cc5ccccc5nc4OC)[nH]3)c2c1",
    "target_of_assay": "Bloodstream form of Trypanosoma brucei, strain Lister 427",
    "pEC50": "> 7.00"
  },
  {
    "compound": "COc1ccc2nc(C(F)(F)F)n(CC(=O)N3CCN(Cc4cnn(C)c4C)CCC3c3ncc(-c4cc5ccccc5nc4OC)[nH]3)c2c1 (stereo not drawn)",
    "target_of_assay": "Bloodstream form of Trypanosoma brucei, strain Lister 427",
    "pEC50": "6.30 to 7.00"
  },
  {
    "compound": "COc1ccc2nc(C)n(CC(=O)N3CCN(CC4CCOC4)C[C@H]3c3ncc(-c4ccc(-c5ccccc5)nc4OC)[nH]3)c2c1 (stereo partly drawn)",
    "target_of_assay": "Bloodstream form of Trypanosoma brucei, strain Lister 427",
    "pEC50": "6.00 to 6.29"
  },
  {
    "compound": "COc1nc2ccccc2cc1-c1cnc(C2CN(CC3CCOC3)CCN2C(=O)Cn2ccc3cc(C#N)ccc32)[nH]1 (stereo not drawn)",
    "target_of_assay": "Bloodstream form of Trypanosoma brucei, strain Lister 427",
    "pEC50": "6.00 to 6.29"
  },
  {
    "compound": "COc1ccc2nc(C)n(CC(=O)N3CCN(Cc4ccn(C)n4)C[C@H]3c3ncc(-c4cc5ccccc5nc4OC)[nH]3)c2c1",
    "target_of_assay": "Bloodstream form of Trypanosoma brucei, strain Lister 427",
    "pEC50": "> 7.00"
  },
  {
    "compound": "COc1nc2ccccc2cc1-c1cnc(C2CS(=O)(=O)CCN2C(=O)Cc2c(C)[nH]c3ccc(F)cc23)[nH]1 (stereo not drawn)",
    "target_of_assay": "Bloodstream form of Trypanosoma brucei, strain Lister 427",
    "pEC50": "6.30 to 7.00"
  },
  {
    "compound": "COc1nc2ccccc2cc1-c1cnc(C2CN(C3CCC3)CCN2C(=O)Cc2c(C)[nH]c3ccc(F)cc23)[nH]1 (stereo not drawn)",
    "target_of_assay": "Bloodstream form of Trypanosoma brucei, strain Lister 427",
    "pEC50": "6.30 to 7.00"
  },
  {
    "compound": "CCC(=O)CCCN1CCN(S(=O)(=O)c2ccccc2)C(c2ncc(-c3ccc4ccccc4c3)[nH]2)C1 (stereo not drawn)",
    "target_of_assay": "Bloodstream form of Trypanosoma brucei, strain Lister 427",
    "pEC50": "5.30 to 6.00"
  },
  {
    "compound": "COc1ccc2nc(C)n(CC(=O)N3CCN(C4CCS(=O)(=O)CC4)C[C@H]3c3ncc(-c4cc5ccccc5nc4OC)[nH]3)c2c1",
    "target_of_assay": "Bloodstream form of Trypanosoma brucei, strain Lister 427",
    "pEC50": "6.00 to 6.29"
  },
  {
    "compound": "COc1ccc2[nH]c(C)c(CC(=O)N3CCN(CCCC(=O)O)CC3c3ncc(-c4ccc5ccccc5c4)[nH]3)c2c1 (stereo not drawn)",
    "target_of_assay": "Bloodstream form of Trypanosoma brucei, strain Lister 427",
    "pEC50": "5.30 to 6.00"
  },
  {
    "compound": "CCC(=O)CCCN1CCN(C(=O)c2cncs2)C(c2ncc(-c3ccc4ccccc4c3)[nH]2)C1 (stereo not drawn)",
    "target_of_assay": "Bloodstream form of Trypanosoma brucei, strain Lister 427",
    "pEC50": "5.30 to 6.00"
  },
  {
    "compound": "COc1nc2ccccc2cc1-c1cnc(C2CN(CC3CCOC3)CCN2C(=O)Cn2ccnc2-c2ccccc2)[nH]1 (stereo not drawn)",
    "target_of_assay": "Bloodstream form of Trypanosoma brucei, strain Lister 427",
    "pEC50": "5.30 to 6.00"
  },
  {
    "compound": "COc1ccc2nc(C(F)(F)F)n(CC(=O)N3CCN(Cc4cscn4)CCC3c3ncc(-c4cc5ccccc5nc4OC)[nH]3)c2c1 (stereo not drawn)",
    "target_of_assay": "Bloodstream form of Trypanosoma brucei, strain Lister 427",
    "pEC50": "> 7.00"
  },
  {
    "compound": "O=C(Cc1c[nH]c2ncccc12)N1CCCCC1c1ncc(-c2ccc3ccccc3c2)[nH]1 (stereo not drawn)",
    "target_of_assay": "Bloodstream form of Trypanosoma brucei, strain Lister 427",
    "pEC50": "5.30 to 6.00"
  },
  {
    "compound": "COc1ccc2nc(C)n(CC(=O)N3CCN(CC4CCOC4)C[C@H]3c3ncc(-c4ccc5ccccc5n4)[nH]3)c2c1 (stereo partly drawn)",
    "target_of_assay": "Bloodstream form of Trypanosoma brucei, strain Lister 427",
    "pEC50": "5.30 to 6.00"
  },
  {
    "compound": "COc1ccc2nc(C(F)(F)F)n(CC(=O)N3CC[C@@H](N(C)C)C[C@H]3c3ncc(-c4cc5ccccc5nc4OC)[nH]3)c2c1",
    "target_of_assay": "Bloodstream form of Trypanosoma brucei, strain Lister 427",
    "pEC50": "6.00 to 6.29"
  },
  {
    "compound": "COc1nc2ccccc2cc1-c1cnc([C@@H]2CN(CC3CCOC3)CCN2C(=O)Cn2c(C)nc3ccc(C(F)(F)F)cc32)[nH]1 (stereo partly drawn)",
    "target_of_assay": "Bloodstream form of Trypanosoma brucei, strain Lister 427",
    "pEC50": "> 7.00"
  },
  {
    "compound": "COc1ccc2nc(C(F)(F)F)n(CC(=O)N3CCN(CC4CCOC4)C[C@H]3c3ncc(-c4cc5ccccc5nc4OC)[nH]3)c2c1 (stereo partly drawn)",
    "target_of_assay": "Bloodstream form of Trypanosoma brucei, strain Lister 427",
    "pEC50": "> 7.00"
  },
  {
    "compound": "COc1nc2ccccc2cc1-c1cnc(C2CN(CC(F)F)CCN2C(=O)Cc2ccccc2)[nH]1 (stereo not drawn)",
    "target_of_assay": "Bloodstream form of Trypanosoma brucei, strain Lister 427",
    "pEC50": "5.30 to 6.00"
  },
  {
    "compound": "COc1ccc2[nH]c(C)c(CC(=O)N3CCN(CC4CCOC4)CC3c3ncc(-c4cc5ccccc5nc4OC)[nH]3)c2c1 (stereo not drawn)",
    "target_of_assay": "Bloodstream form of Trypanosoma brucei, strain Lister 427",
    "pEC50": "> 7.00"
  },
  {
    "compound": "COc1nc2ccccc2cc1-c1cnc([C@@H]2CN(Cc3cnn(C)c3)CCN2C(=O)Cn2c(C(F)(F)F)nc3ccccc32)[nH]1",
    "target_of_assay": "Bloodstream form of Trypanosoma brucei, strain Lister 427",
    "pEC50": "6.30 to 7.00"
  },
  {
    "compound": "COc1nc2ccccc2cc1-c1cnc(C2CN(C(=O)OCc3ccccc3)CCN2C(=O)Cc2c(C)[nH]c3ccc(F)cc23)[nH]1 (stereo not drawn)",
    "target_of_assay": "Bloodstream form of Trypanosoma brucei, strain Lister 427",
    "pEC50": "5.30 to 6.00"
  },
  {
    "compound": "COc1ccc2nc(C(F)(F)F)n(CC(=O)N3CC[C@H](NCC4CCOC4)C[C@H]3c3ncc(-c4cc5ccccc5nc4OC)[nH]3)c2c1 (stereo partly drawn)",
    "target_of_assay": "Bloodstream form of Trypanosoma brucei, strain Lister 427",
    "pEC50": "> 7.00"
  },
  {
    "compound": "COc1ccc2nc(C(F)(F)F)n(CC(=O)N3CC[C@H](NCc4nccs4)C[C@H]3c3ncc(-c4cc5ccccc5nc4OC)[nH]3)c2c1",
    "target_of_assay": "Bloodstream form of Trypanosoma brucei, strain Lister 427",
    "pEC50": "> 7.00"
  },
  {
    "compound": "CN1CCN(C(=O)Cc2noc3ccccc23)C(c2ncc(-c3ccc4ccccc4c3)[nH]2)C1 (stereo not drawn)",
    "target_of_assay": "Bloodstream form of Trypanosoma brucei, strain Lister 427",
    "pEC50": "5.30 to 6.00"
  },
  {
    "compound": "COc1ccc2nc(C)n(CC(=O)N3CCN(CC4COC4)C[C@H]3c3ncc(-c4cc5ccccc5nc4OC)[nH]3)c2c1",
    "target_of_assay": "Bloodstream form of Trypanosoma brucei, strain Lister 427",
    "pEC50": "> 7.00"
  },
  {
    "compound": "COc1nc2ccccc2cc1-c1cnc(C2CCN(Cc3ccn(C)n3)CCN2C(=O)Cc2c(C)[nH]c3ccc(F)cc23)[nH]1 (stereo not drawn)",
    "target_of_assay": "Bloodstream form of Trypanosoma brucei, strain Lister 427",
    "pEC50": "> 7.00"
  },
  {
    "compound": "CCC(=O)CCCN1CCN(C(=O)Cc2c[nH]c3ccccc23)C(c2ncc(-c3ccc4ccccc4c3)[nH]2)C1 (stereo not drawn)",
    "target_of_assay": "Bloodstream form of Trypanosoma brucei, strain Lister 427",
    "pEC50": "6.30 to 7.00"
  },
  {
    "compound": "COc1ccc2nc(C(F)(F)F)n(CC(=O)N3CC[C@H](NCc4ccccn4)C[C@H]3c3ncc(-c4cc5ccccc5nc4OC)[nH]3)c2c1",
    "target_of_assay": "Bloodstream form of Trypanosoma brucei, strain Lister 427",
    "pEC50": "> 7.00"
  },
  {
    "compound": "COc1ccc2nc(C(F)(F)F)n(CC(=O)N3CCN(CC4COC4)CCC3c3ncc(-c4cc5ccccc5nc4OC)[nH]3)c2c1 (stereo not drawn)",
    "target_of_assay": "Bloodstream form of Trypanosoma brucei, strain Lister 427",
    "pEC50": "6.30 to 7.00"
  }
]
